ASSAY_EXPLANATION: in vitro
EXPERIMENTAL_CONDITIONS: human, microsomes
MEASURED_METRIC: half-life at 3 μM

Query :: What value of measured half-life at 3 μM is listed for Clc1ccc2nc(-c3ccc(-c4ccccc4)cc3)oc2c1 [Cmp. 1] ?
Result :: > 145 min
